test: Antiproliferative activity against rat MRMT-1 cells assessed as reduction in cell viability after 48 hr by CCK-8 assay; assay type: functional, cell-based; settings: MRMT-1, 48 h
Where a SMILES comes first, the peptide text is derived from it. [ ]: non-standard residue; d: D form. ξ: configuration not given here. NMeF = CN[C@@H](Cc1ccccc1)C(=O)O; Hica(2S) = CC(C)C[C@H](O)C(=O)O; ξLac(3-iPr) = CC(C)CC(O)C(=O)O
REPORTED PROPERTY: IC50

[[record]]
molecule = "CCCCC/C=C\\CCC(=O)OC1=C(c2ccccc2)CCC1=O"
reported_property = "IC50"
value_reported = "> 50 µM"

[[record]]
molecule = "CCC(C)[C@H]1OC(=O)[C@H](C(C)C)N(C)C(=O)[C@@H](C(C)CC)OC(=O)[C@H](C(C)C)N(C)C(=O)[C@@H](C(C)CC)OC(=O)[C@H](C(C)C)N(C)C1=O (some centres undefined)"
reported_property = "IC50"
value_reported = "6.8 µM"

[[record]]
molecule = "CC(C)CC1OC(=O)[C@H](Cc2ccccc2)NC(=O)[C@H](Cc2ccccc2)NC(=O)[C@H](Cc2ccccc2)NC(=O)[C@H](Cc2ccccc2)NC(=O)[C@H](Cc2c[nH]c3ccccc23)NC1=O (some centres undefined) (cyclo(FFFF[ξLac(3-iPr)]W))"
reported_property = "IC50"
value_reported = "17.3 µM"

[[record]]
molecule = "CCCCCCCC(=O)OC1=C(c2ccccc2)CCC1=O"
reported_property = "IC50"
value_reported = "> 50 µM"

[[record]]
molecule = "CN1C(=O)[C@@](C)(O)C(=O)[C@@H]1Cc1ccc2c(c1)CC(C(C)(C)O)O2 (some centres undefined) [RIGIDIUSCULAMIDE C]"
reported_property = "IC50"
value_reported = "> 50 µM"

[[record]]
molecule = "COC(=O)/C=C/c1c(CC=C(C)C)ncn1C"
reported_property = "IC50"
value_reported = "> 50 µM"

[[record]]
molecule = "CC(=O)CC(O)Cc1cc2cc(O)cc(O)c2c(=O)o1 (centres undefined)"
reported_property = "IC50"
value_reported = "> 50 µM"

[[record]]
molecule = "CCC(C)[C@H]1OC(=O)[C@H](C(C)C)N(C)C(=O)[C@@H](C(C)CC)OC(=O)[C@H](CC(C)C)N(C)C(=O)[C@@H](C(C)CC)OC(=O)[C@H](C(C)C)N(C)C1=O (some centres undefined)"
reported_property = "IC50"
value_reported = "2.8 µM"

[[record]]
molecule = "CCC(C)C1NC(=O)C(CC(C)C)NC(=O)C(C(C)CC)NC(=O)C(CC(C)C)NC(=O)C(CC(C)C)NC1=O (centres undefined) (cyclo(ILILL); configuration not given here)"
reported_property = "IC50"
value_reported = "> 50 µM"

[[record]]
molecule = "CC(C)(O)[C@H]1Cc2cc(C=O)ccc2O1"
reported_property = "IC50"
value_reported = "> 50 µM"

[[record]]
molecule = "CCCCC/C=C\\CCC(=O)O[C@@H]1[C@](N)(C(=O)O)CC[C@]1(O)c1ccccc1"
reported_property = "IC50"
value_reported = "> 50 µM"

[[record]]
molecule = "O=c1[nH]cc(F)c(=O)[nH]1"
reported_property = "IC50"
value_reported = "25.7 µM"

[[record]]
molecule = "CC(C)[C@H]1OC(=O)[C@H](Cc2ccccc2)N(C)C(=O)[C@@H](C(C)C)OC(=O)[C@H](Cc2ccccc2)N(C)C(=O)[C@@H](C(C)C)OC(=O)[C@H](Cc2ccccc2)N(C)C1=O"
reported_property = "IC50"
value_reported = "8.7 µM"

[[record]]
molecule = "CC(C)C[C@@H]1OC(=O)[C@H](Cc2ccccc2)N(C)C(=O)[C@@H]2CCCN2C(=O)[C@H](C(C)C)NC(=O)[C@H](Cc2ccccc2)NC(=O)[C@@H]2CCCN2C(=O)[C@@H]2CCCN2C1=O (cyclo(FVP[NMeF][Hica(2S)]PP))"
reported_property = "IC50"
value_reported = "> 50 µM"


###

Quick reference: IC50 of the listed items.
test system: Huh-7; test: Antiproliferative activity against human Huh-7 cells assessed as reduction in cell viability after 48 hr by CCK-8 assay; format: functional, cell-based; conditions: Huh-7, 48 h
Where a SMILES comes first, the peptide text is derived from it. [ ]: non-standard residue; d: D form. ξ: configuration not given here. NMeF = CN[C@@H](Cc1ccccc1)C(=O)O; Hica(2S) = CC(C)C[C@H](O)C(=O)O; ξLac(3-iPr) = CC(C)CC(O)C(=O)O
REPORTED PROPERTY: IC50 (µM)

[[record]]
compound = "CC[C@H](C)[C@H]1OC(=O)[C@H](C(C)C)N(C)C(=O)[C@@H](C(C)C)OC(=O)[C@H](C(C)C)N(C)C(=O)[C@@H]([C@@H](C)CC)OC(=O)[C@H](C(C)C)N(C)C1=O"
reported_property = "IC50"
qualifier_sign = "="
value_reported = 6.2

[[record]]
compound = "CN1C(=O)[C@@](C)(O)C(=O)[C@@H]1Cc1ccc2c(c1)CC(C(C)(C)O)O2 (some centres not stated) [RIGIDIUSCULAMIDE C]"
reported_property = "IC50"
qualifier_sign = ">"
value_reported = 50

[[record]]
compound = "CC(C)C[C@@H]1OC(=O)[C@H](Cc2ccccc2)N(C)C(=O)[C@@H]2CCCN2C(=O)[C@H](C(C)C)NC(=O)[C@H](Cc2ccccc2)NC(=O)[C@@H]2CCCN2C(=O)[C@@H]2CCCN2C1=O (cyclo(FVP[NMeF][Hica(2S)]PP))"
reported_property = "IC50"
qualifier_sign = ">"
value_reported = 50

[[record]]
compound = "CC(=O)CC(O)Cc1cc2cc(O)cc(O)c2c(=O)o1 (configuration not stated)"
reported_property = "IC50"
qualifier_sign = ">"
value_reported = 50

[[record]]
compound = "CCCCCCCC(=O)OC1=C(c2ccccc2)CCC1=O"
reported_property = "IC50"
qualifier_sign = ">"
value_reported = 50

[[record]]
compound = "CCCCC/C=C\\CCC(=O)OC1=C(c2ccccc2)CCC1=O"
reported_property = "IC50"
qualifier_sign = ">"
value_reported = 50

[[record]]
compound = "CCCCC/C=C\\CCC(=O)O[C@@H]1[C@](N)(C(=O)O)CC[C@]1(O)c1ccccc1"
reported_property = "IC50"
qualifier_sign = ">"
value_reported = 50

[[record]]
compound = "COC(=O)/C=C/c1c(CC=C(C)C)ncn1C"
reported_property = "IC50"
qualifier_sign = ">"
value_reported = 50

[[record]]
compound = "CCC(C)C1NC(=O)C(CC(C)C)NC(=O)C(C(C)CC)NC(=O)C(CC(C)C)NC(=O)C(CC(C)C)NC1=O (configuration not stated) (cyclo(ILILL); configuration not given here)"
reported_property = "IC50"
qualifier_sign = ">"
value_reported = 50

[[record]]
compound = "CCC(C)[C@H]1OC(=O)[C@H](C(C)C)N(C)C(=O)[C@@H](C(C)CC)OC(=O)[C@H](CC(C)C)N(C)C(=O)[C@@H](C(C)CC)OC(=O)[C@H](C(C)C)N(C)C1=O (some centres not stated)"
reported_property = "IC50"
qualifier_sign = "="
value_reported = 3.3

[[record]]
compound = "CCCCCCCC(=O)O[C@@H]1[C@](N)(C(=O)O)CC[C@]1(O)c1ccccc1"
reported_property = "IC50"
qualifier_sign = ">"
value_reported = 50

[[record]]
compound = "CC(C)CC1OC(=O)[C@H](Cc2ccccc2)NC(=O)[C@H](Cc2ccccc2)NC(=O)[C@H](Cc2ccccc2)NC(=O)[C@H](Cc2ccccc2)NC(=O)[C@H](Cc2c[nH]c3ccccc23)NC1=O (some centres not stated) (cyclo(FFFF[ξLac(3-iPr)]W))"
reported_property = "IC50"
qualifier_sign = "="
value_reported = 30.3

[[record]]
compound = "CC(C)CC1OC(=O)[C@H](Cc2ccccc2)NC(=O)[C@H](Cc2ccccc2)NC(=O)[C@H](Cc2ccccc2)NC(=O)[C@H](Cc2ccc(O)cc2)NC1=O (some centres not stated) (cyclo(FFF[ξLac(3-iPr)]Y))"
reported_property = "IC50"
qualifier_sign = "="
value_reported = 46.2

[[record]]
compound = "O=c1[nH]cc(F)c(=O)[nH]1"
reported_property = "IC50"
qualifier_sign = "="
value_reported = 30.3

[[record]]
compound = "CCC(C)[C@H]1OC(=O)[C@H](C(C)C)N(C)C(=O)[C@@H](C(C)CC)OC(=O)[C@H](C(C)C)N(C)C(=O)[C@@H](C(C)CC)OC(=O)[C@H](C(C)C)N(C)C1=O (some centres not stated)"
reported_property = "IC50"
qualifier_sign = "="
value_reported = 9.1

[[record]]
compound = "CC(C)[C@H]1OC(=O)[C@H](Cc2ccccc2)N(C)C(=O)[C@@H](C(C)C)OC(=O)[C@H](Cc2ccccc2)N(C)C(=O)[C@@H](C(C)C)OC(=O)[C@H](Cc2ccccc2)N(C)C1=O"
reported_property = "IC50"
qualifier_sign = "="
value_reported = 4.3

[[record]]
compound = "CC(C)(O)[C@H]1Cc2cc(C=O)ccc2O1"
reported_property = "IC50"
qualifier_sign = ">"
value_reported = 50

